- TEST: Lipophilicity: octanol-water partition coefficient, shake-flask method
- RUN_PARAMETERS: n-octanol/water, shake-flask, mean of at least three determinations
The following molecules are shown together with reported Log P values.
Output spec: single numeric token, no unit.

// worked examples, Log P included
MOLECULE: COC(=O)c1ccc2[n+](c1)[Ir-3]13([c]4ccccc4-2)([c]2ccccc2-c2ccc(C(=O)OC)c[n+]21)[c]1n(CCCNC(=O)c2ccccc2SC/C=C(\C)CC/C=C(\C)CCC=C(C)C)cc[n+]1-c1cccc[n+]13.F[P-](F)(F)(F)(F)F [II-e]
REPORTED_VALUE: 1.30
--
MOLECULE: COC(=O)c1cccc2[c]1[Ir-3]13([c]4c(C(=O)OC)cccc4-c4cccc[n+]41)([c]1n(CCCNC(=O)[c-]4cccc4)cc[n+]1-c1cccc[n+]13)[n+]1ccccc1-2.F[P-](F)(F)(F)(F)F.[Fe+2].c1cc[cH-]c1 [IV-d]
REPORTED_VALUE: 0.77

Kindly consider the entry below.
Ask: # Log P lookup, item F[P-](F)(F)(F)(F)F.O=C(CCCC[C@@H]1SC[C@@H]2NC(=O)N[C@@H]21)NCCCn1cc[n+]2[c]1[Ir-3]13([c]4ccccc4-c4ccc(C(=O)O)c[n+]41)([c]1ccccc1-c1ccc(C(=O)O)c[n+]13)[n+]1ccccc1-2 [I-f]
Result: −0.68

* * *

The following compounds are shown together with reported GI50 values.
- Test system: PC-3 prostate cancer cells (PSMA-negative)
- TEST: Cell viability assay (MTT), dark and blue light
- Assay type: cell-based, Human
- RUN_PARAMETERS: PC3, dark; read-out: GI50
- Procedure: Cells were grown in humidified incubators at 37° C. in 5% CO2. […] MTT reagent (3-(4,5-dimethylthiazol-2-yl)-2,5-diphenyltetrazolium bromide) was used to determine cell death as originally described by Mosmann. […] The concentration of the complexes was calculated based on the elemental composition of the complexes determined by the elemental analyses. […] All the results were calculated from data obtained in at least three independent experiments performed in triplicate. […]
Respond numerically; units are µM and should not be typed.

// worked examples, GI50 included
SMILES_ENTRY: COC(=O)c1ccc2[n+](c1)[Ir-3]13([c]4ccccc4-2)([c]2ccccc2-c2ccc(C(=O)OC)c[n+]21)[c]1n(CCCNC(=O)[c-]2cccc2)cc[n+]1-c1cccc[n+]13.F[P-](F)(F)(F)(F)F.[Fe+2].c1cc[cH-]c1
GI50 / µM: 9.9

SMILES_ENTRY: Cc1ccc2[c](c1)[Ir-3]13([c]4cc(C)ccc4-c4cccc[n+]41)([c]1n(CCCNC(=O)[c-]4cccc4)cc[n+]1-c1cccc[n+]13)[n+]1ccccc1-2.F[P-](F)(F)(F)(F)F.[Fe+2].c1cc[cH-]c1
GI50 / µM: 0.85

SMILES_ENTRY: F[P-](F)(F)(F)(F)F.O=C(O)CC[C@H](NC(=O)N[C@@H](CCCCNC(=O)CCn1cc[n+]2[c]1[Ir-3]13([c]4cccc5ccc6ccc[n+]1c6c45)([c]1cccc4ccc5ccc[n+]3c5c14)[n+]1ccccc1-2)C(=O)O)C(=O)O
GI50 / µM: 57.2

Kindly consider the entry below.
Ask: # GI50 lookup, item F[P-](F)(F)(F)(F)F.O=C(O)CC[C@H](NC(=O)N[C@@H](CCCCNC(=O)CCn1cc[n+]2[c]1[Ir-3]13([c]4ccccc4-c4sc5ccccc5[n+]41)([c]1ccccc1-c1sc4ccccc4[n+]13)[n+]1ccccc1-2)C(=O)O)C(=O)O
Result: 9.6
